- Assay method text: in vitro
- Condition context: human, hela cells, % viability
// reported viability at 28.5 h, 10 µM for each item listed
Respond numerically; units are % and should not be typed.

Example cases with answers are listed next.
# Molecule, viability at 28.5 h, 10 µM / %
rows = [
    ("CC1(C)[C@H](Cc2cc(CO)on2)C[C@@H]1N(Cc1ccncc1)Cc1ccncc1", 98.2),
    ("CCC(=O)Nc1ccc(C(=O)N2CCN(c3ccccc3)CC2)cc1", 105),
    ("FC(F)(F)c1cccc(-c2cn(-c3ccsc3)nn2)c1", 88.5),
]

Quick check: viability at 28.5 h, 10 µM of CN(CC(=O)N1CCC[C@@H]2[C@H]1C/C=C/Cc1ccccc1OCC(=O)N2C)Cc1ccccn1 ?
91.5

Quick check: viability at 28.5 h, 10 µM of Nc1ncc(-c2ccncc2)nc1NCC1CCOCC1 ?
105

Quick check: viability at 28.5 h, 10 µM of O=C(Cc1c[nH]c2ccccc12)N1CCC2(CCN(C(=O)c3ccc4[nH]c(=O)[nH]c4c3)C2)C1 (centres unmarked) ?
90.8

Quick check: viability at 28.5 h, 10 µM of CS(=O)(=O)N(CC(=O)N/N=C/c1ccncc1)c1ccccc1Br ?
100

Quick check: viability at 28.5 h, 10 µM of O=C1CCC(=O)N1CCN1C(=O)C2(CC(=O)N(CCC(F)(F)F)C2=O)c2ccccc21 (centres unmarked) ?
105
